methodSummary: Effects of mouse serum on in vitro degradation of peptides (HPLC)
Assay type: in vitro ADME
appliedConditions: Swiss TO, mouse, serum, pH 7.8
Numbered stars: 1 amine (or outer) side, 2 acyl side, 3 side chain; on linkers, the order of the positions; unused ones are H or OH. Square brackets hold non-standard residues; d marks the D form. Peptide text beside a SMILES is read from it. X1 = O=C(O)C[C@@H](C(=O)[*:2])N(C[C@H](O)[C@@H](O)[C@H](O)[C@H](O)CO)[*:1]; sY = N[C@@H](Cc1ccc(OS(=O)(=O)O)cc1)C(=O)O
measureName: remaining at 2 h, 20 µg/ml (%)
Write the number in % without appending the unit.

Record CSCC[C@H](NC(=O)[C@H](Cc1ccc(OS(=O)(=O)O)cc1)NC(=O)[C@H](CC(=O)O)NC[C@H](O)[C@@H](O)[C@H](O)[C@H](O)CO)C(=O)NCC(=O)N[C@@H](Cc1c[nH]c2ccccc12)C(=O)N[C@@H](CCSC)C(=O)N[C@@H](CC(=O)O)C(=O)N[C@@H](Cc1ccccc1)C(N)=O [Asp^1-glucitol CCK-8] (H-[X1][sY]MGWMDF-NH2) , field remaining at 2 h, 20 µg/ml: 100
